Cited source for all entries: patent US20090227597A1

pIC50: −log10 of the molar value.
Observed pIC50 for PDE5 enzyme (Homo sapiens, UniProt O76074), reported per entry below.

Compound	Result
CCCc1nn(C)c2c(=O)[nH]c(-c3cc(S(=O)(=O)N4CCN(CC(=O)N[C@@H](CS)C(=O)O)CC4)ccc3OCC)nc12 [Example 2, sildenafil analog amide with cysteine]	8.14 to 8.17

# ---- query compound ----
Query string: Would you mind telling me what pIC50 value was observed for CCCc1nn(C)c2c(=O)[nH]c(-c3cc(S(=O)(=O)N4CCN(CC(=O)Oc5ccc(-c6cc(=S)ss6)cc5)CC4)ccc3OCC)nc12 [Example 1] ?
Result string: 8.14 to 8.17
